Exercise: for every item that follows, state its recorded LD50.
ASSAY_TEXT: LD50 i.p. in mice, calculated by Litchfield-Wilcoxon method
EXPERIMENTAL_PARAMETERS: mouse, in vivo, ip, read-out: ID50 (the source's name)
One number for each entry, in mg/kg.

Worked examples, 2 molecules total:
molecule="COC(=O)c1ccccc1CCc1ccccc1OCCN(C)C [Example 41]" experimental_endpoint=LD50 reported_measurement=130
molecule="CN(C)CCCOc1ccccc1CCc1ccc(Cl)cc1 [Example 44]" experimental_endpoint=LD50 reported_measurement=185

Below are some molecules; for each one, tell me its LD50.
1. CN(C)CCCCCCOc1ccccc1CCc1ccccc1Cl [Example 51]
2. CN(C)CCCCOc1ccccc1CCc1ccccc1 [Example 3, 2-(4-dimethylaminobutoxy)bibenzyl]

Found:
250
215

* * *

For each of the compounds below, state its LD50.
ASSAY_TEXT: LD50 i.p. in mice, calculated by Litchfield-Wilcoxon method
EXPERIMENTAL_PARAMETERS: mouse, in vivo, ip, read-out: ID50 (the source's name)
Give bare numbers, in mg/kg.

Below: 3 compounds and their reported LD50.
compound="NC(=O)C1CCCN(CCCCOc2ccccc2CCc2ccccc2)C1 (stereo not shown)" reported_measurement=270
compound=COc1cccc(CCc2ccccc2OCCCCN(C)C)c1 reported_measurement=200
compound=Cl.O=C(O)C1CCN(CCCCOc2ccccc2CCc2ccccc2)CC1 reported_measurement=500

Then there is this compound:
Lookup: Input CN(C)CCCCOc1ccccc1CCc1ccccc1Cl.Cl , output reported LD50.
Found: 170
